Items are presented alongside their recorded Total Cell Count.
# System: U2OS
# assay notes: Multiplex assay against U2OS
# Format: toxicity, cell-based
# condition context: human, 48 h, 1 µM, compound concentration 1 uM, replicate 2
Format: numeric value only, no unit, no commentary.

Take a look at these entries with their results.
{"molecule": "CC(C)OC(=O)N1CCC(Oc2ncnc3c2cnn3-c2ccc(S(C)(=O)=O)cc2F)CC1", "Total Cell Count": 199}
{"molecule": "CC(C)Oc1ccccc1C(=O)Nc1ccccc1C(=O)Nc1cccc(S(=O)(=O)C(F)(F)F)c1", "Total Cell Count": 56}
{"molecule": "CC(C)c1noc(N2CCC(COc3ccc(-c4ccc(S(C)(=O)=O)cc4)nc3)CC2)n1", "Total Cell Count": 136}
{"molecule": "COc1ccccc1CN[C@H]1C2CCN(CC2)[C@H]1C(c1ccccc1)c1ccccc1", "Total Cell Count": 164}
{"molecule": "Cc1cccc(CN2CCN(C(c3ccccc3)c3ccc(Cl)cc3)CC2)c1.Cl.Cl (centres undefined)", "Total Cell Count": 45}

Value lookup for Total Cell Count; key = CNC(=O)Nc1ccc(-c2nc(N3CC4CCC(C3)O4)c3cnn(C4CCC5(CC4)OCCO5)c3n2)cc1
56

Value lookup for Total Cell Count; key = CC(C)NC(=O)N1CC[C@H](NC2=Nc3cc(F)ccc3N(CC(F)F)c3ccc(Cl)cc32)C1
259

Value lookup for Total Cell Count; key = O=C(c1cc2c(cc1F)OC(c1ccc(F)cc1)(c1ccc(Cl)cc1Cl)O2)N1CCOCC1 (centres undefined)
78

Value lookup for Total Cell Count; key = C[C@]12CC[C@@H]3c4ccc(O)cc4CC[C@H]3[C@@H]1CC[C@@H]2O
90

====

# Tested on: HEK-293T
# assay notes: Multiplex assay against HEK293T;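 note: share of the cells with healthy nuclei that show this phenotype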
# Assay type: toxicity, cell-based
# condition context: human, 12 h, 1 µM, compound concentration 1 uM, replicate 1
Items are presented alongside their recorded Population Tubulin-Different-Phenotype (%).
Please state the figure in %; there is no need to write the unit.

{"molecule": "CCc1nn(CCCN2CCN(c3cccc(Cl)c3)CC2)c(=O)n1CCOc1ccccc1.Cl [NEFAZODONE HYDROCHLORIDE]", "test value": 72}
{"molecule": "O=c1[nH]c2ccccc2n1C1CCN(Cc2ccc(-c3[nH]c4cc5ncnc5cc4nc3-c3ccccc3)cc2)CC1", "test value": 6}
{"molecule": "CC(C)c1noc(N2CCC(COc3ccc(-c4ccc(S(C)(=O)=O)cc4)nc3)CC2)n1", "test value": 34}
{"molecule": "O=C(c1cc2c(cc1F)OC(c1ccc(F)cc1)(c1ccc(Cl)cc1Cl)O2)N1CCOCC1 (stereo not drawn)", "test value": 54}
{"molecule": "Cl.O=C(O)c1cc(-c2ccc(C3CCNCC3)cc2)c2ccc(-c3ccc(C(F)(F)F)cc3)cc2c1", "test value": 36}
{"molecule": "COc1cc(Nc2nccc(-c3cnn4nc(OC)ccc34)n2)cc(C(F)(F)F)c1", "test value": 30}
{"molecule": "CCOC(=O)Nc1cc(-c2ccc(C)c(NS(C)(=O)=O)c2)nn2c(C)nnc12", "test value": 2}
{"molecule": "COc1ccccc1CN[C@H]1C2CCN(CC2)[C@H]1C(c1ccccc1)c1ccccc1", "test value": 80}

HEK-293T / Population Tubulin-Different-Phenotype (%) / Cc1c[nH]c2nccc(Oc3c(F)cc(Nc4cc(Cl)nc(N)n4)cc3F)c12 : value?
31

HEK-293T / Population Tubulin-Different-Phenotype (%) / Cc1cccc(CN2CCN(C(c3ccccc3)c3ccc(Cl)cc3)CC2)c1.Cl.Cl (stereo not drawn) : value?
39

HEK-293T / Population Tubulin-Different-Phenotype (%) / COc1cc2ncn(-c3cc(OCc4ccccc4C(F)(F)F)c(C(N)=O)s3)c2cc1OC [GW843682X] : value?
64

HEK-293T / Population Tubulin-Different-Phenotype (%) / C=CC(=O)Nc1cccc(Oc2nc(Nc3ccc(N4CCN(C)CC4)cc3OC)ncc2Cl)c1 : value?
77

HEK-293T / Population Tubulin-Different-Phenotype (%) / CC(C)Oc1ccccc1C(=O)Nc1ccccc1C(=O)Nc1cccc(S(=O)(=O)C(F)(F)F)c1 : value?
77

HEK-293T / Population Tubulin-Different-Phenotype (%) / CC(C)NC(=O)N1CC[C@H](NC2=Nc3cc(F)ccc3N(CC(F)F)c3ccc(Cl)cc32)C1 : value?
34

HEK-293T / Population Tubulin-Different-Phenotype (%) / CNC(=O)Nc1ccc(-c2nc(N3CC4CCC(C3)O4)c3cnn(C4CCC5(CC4)OCCO5)c3n2)cc1 : value?
50

HEK-293T / Population Tubulin-Different-Phenotype (%) / Cc1ccc2c(c1)c1c(n2CCc2ccc(C)nc2)CCN(C)C1 [LATREPIRDINE] : value?
85

HEK-293T / Population Tubulin-Different-Phenotype (%) / CN1CCN(Cc2ccc(Nc3ncc(Cl)c(Nc4ccccc4S(=O)(=O)N(C)C)n3)cc2)CC1 : value?
35

HEK-293T / Population Tubulin-Different-Phenotype (%) / CCc1ccc(OCc2ccccc2C(=O)Nc2ccc3nc(C)cc(N)c3c2)cc1.Cl : value?
66
